- assayed.system: hGSK3b (Homo sapiens, UniProt P49841)
- Construct: purchased Cerep (LANCE kinase assay platform, contract assay)
- Sequence (P49841 whole entry): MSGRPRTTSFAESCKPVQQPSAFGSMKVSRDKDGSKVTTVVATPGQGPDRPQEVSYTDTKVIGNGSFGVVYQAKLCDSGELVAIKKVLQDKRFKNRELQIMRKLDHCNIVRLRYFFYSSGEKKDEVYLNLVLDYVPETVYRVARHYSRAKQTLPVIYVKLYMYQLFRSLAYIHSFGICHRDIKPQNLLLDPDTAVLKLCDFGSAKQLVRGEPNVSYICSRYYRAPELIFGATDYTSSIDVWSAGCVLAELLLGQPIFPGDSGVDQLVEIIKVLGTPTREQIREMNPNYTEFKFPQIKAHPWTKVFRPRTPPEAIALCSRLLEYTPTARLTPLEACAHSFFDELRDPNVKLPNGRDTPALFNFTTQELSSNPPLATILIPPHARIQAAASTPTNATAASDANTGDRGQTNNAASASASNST
- assay.remarks: Cerep LANCE kinase assay hGSK3b (S1 assay 34)
- Assay type: biochemical
- condition.description: assay number 34; read-out: hGSK3b LANCE summarized IC50
pIC50: −log10 of the molar value.

{"mol.smiles": "COc1cc([C@@H]2c3cc4c(cc3[C@H](O)[C@H]3COC(=O)[C@H]23)OCO4)cc(OC)c1OC", "pIC50": "< 4.70"}
{"mol.smiles": "Oc1c(Cl)cc(Cl)c2cccnc12", "pIC50": "< 4.70"}
{"mol.smiles": "Oc1c(Cl)cc(Cl)cc1Sc1cc(Cl)cc(Cl)c1O", "pIC50": 5.18}
{"mol.smiles": "CCCCCCCCCCCCCCCC[n+]1ccccc1", "pIC50": "< 4.70"}
{"mol.smiles": "S=c1nc[nH]c2nc[nH]c12", "pIC50": "< 4.70"}
{"mol.smiles": "Oc1c(I)cc(I)c2cccnc12", "pIC50": "< 4.70"}

* * *

- System: SW480
- assay.remarks: cells
- Assay type: cell-based
- condition.description: basal; read-out: Basal_Viability ATP SW480
pIC50: −log10 of the molar value.
Form field: pIC50 (one value per entry).
recorded.endpoint: pIC50

{"compound": "O=C(CCl)c1ccc(Cl)cc1Cl [2,2',4'-Trichloroacetophenone]", "recorded.result": 5.90}
{"compound": "O=C(c1cc(O)c(O)c(O)c1)c1ccc(O)c(O)c1O [Hexahydro-2,3,4,3',4',5'-benzophenone]", "recorded.result": 5.00}

* * *

# Basal_Viability ATP HCT116 IC50/EC50 per entry
- Test system: HCT116
- assay.remarks: cells
- Assay type: cell-based
recorded.endpoint: Basal_Viability ATP HCT116 IC50/EC50

{"compound": "Cc1cc2nc3ccc(=[N+](C)C)cc-3sc2cc1N.[Cl-]", "assayed.system": "HCT116", "recorded.endpoint": "Basal_Viability ATP HCT116 IC50/EC50", "recorded.result": "2782 nM"}
{"compound": "CCc1oc2ccccc2c1C(=O)c1cc(Br)c(O)c(Br)c1", "assayed.system": "HCT116", "recorded.endpoint": "Basal_Viability ATP HCT116 IC50/EC50", "recorded.result": "1057 nM"}
{"compound": "CCc1oc2ccccc2c1C(=O)c1cc(I)c(O)c(I)c1", "assayed.system": "HCT116", "recorded.endpoint": "Basal_Viability ATP HCT116 IC50/EC50", "recorded.result": "3 nM"}
{"compound": "Cc1c(C)n(Cc2ccccc2)c2ccc(C(=O)OCCN(C)C)cc12", "assayed.system": "HCT116", "recorded.endpoint": "Basal_Viability ATP HCT116 IC50/EC50", "recorded.result": "11761.1 nM"}
{"compound": "Cc1cc(C(C#N)c2ccc(Cl)cc2)c(Cl)cc1NC(=O)c1cc(I)cc(I)c1O (stereo not drawn)", "assayed.system": "HCT116", "recorded.endpoint": "Basal_Viability ATP HCT116 IC50/EC50", "recorded.result": "97.75 nM"}
{"compound": "CC(C)=CCOc1ccc(/C=C/C(=O)c2ccc(OCC=C(C)C)cc2OCC(=O)O)cc1", "assayed.system": "HCT116", "recorded.endpoint": "Basal_Viability ATP HCT116 IC50/EC50", "recorded.result": "> 6667 nM"}

* * *

- Test system: SW480
- assay.remarks: cells
- Type: cell-based
- condition.description: basal; SW480; read-out: Basal_Viability ATP SW480

{"mol.smiles": "N=C(N)NN=C(/C=C/c1ccc([N+](=O)[O-])o1)/C=C/c1ccc([N+](=O)[O-])o1", "result.units": "nM", "IC50": 7.6}
{"mol.smiles": "Fc1ccc(C(OCCN2CCN(CCCc3ccccc3)CC2)c2ccc(F)cc2)cc1", "result.units": "nM", "IC50": 2070}

* * *

- Tested on: HCT116
- assay.remarks: cells
- Assay type: cell-based
- condition.description: assay number 25; basal
recorded.endpoint: Basal_Viability ATP HCT116 IC50/EC50

{"molecule": "CC[C@]1(O)C[C@@H]2CN(CCc3c([nH]c4ccccc34)[C@@](C(=O)OC)(c3cc4c(cc3OC)N(C)[C@H]3[C@@](O)(C(=O)OC)[C@H](OC(C)=O)[C@]5(CC)C=CCN6CC[C@]43[C@@H]65)C2)C1.O=S(=O)(O)O [NCGC00263548-01]", "recorded.endpoint": "Basal_Viability ATP HCT116 IC50/EC50", "recorded.result": "0.001 µM"}
{"molecule": "CCOC(=O)[C@H](CCc1ccccc1)N[C@@H](C)C(=O)N1C(=O)N(C)C[C@H]1C(=O)O.Cl [NCGC00181342-02]", "recorded.endpoint": "Basal_Viability ATP HCT116 IC50/EC50", "recorded.result": "> 20 µM"}
{"molecule": "Cc1ccc(Cl)c(Nc2ccccc2C(=O)[O-])c1Cl.[Na+] [NCGC00023217-08]", "recorded.endpoint": "Basal_Viability ATP HCT116 IC50/EC50", "recorded.result": "> 20 µM"}
{"molecule": "Cc1nc(N)nc(N)c1-c1ccc(Cl)c(Cl)c1 [NCGC00253626-01]", "recorded.endpoint": "Basal_Viability ATP HCT116 IC50/EC50", "recorded.result": "0.4134 µM"}
{"molecule": "CO[C@H]1O[C@@H]2O[C@@]3(C)CC[C@H]4[C@H](C)CC[C@@H]([C@H]1C)[C@@]24OO3 [NCGC00164591-04]", "recorded.endpoint": "Basal_Viability ATP HCT116 IC50/EC50", "recorded.result": "> 20 µM"}
{"molecule": "O=C1C(=O)c2ccccc2C(O)=C1C1CCC(c2ccc(Cl)cc2)CC1 (stereo not drawn) [NCGC00016961-06]", "recorded.endpoint": "Basal_Viability ATP HCT116 IC50/EC50", "recorded.result": "0.1384 µM"}
{"molecule": "CCc1cccc2c3c([nH]c12)C(CC)(CC(=O)O)OCC3 (stereo not drawn) [NCGC00015399-16]", "recorded.endpoint": "Basal_Viability ATP HCT116 IC50/EC50", "recorded.result": "> 20 µM"}
{"molecule": "CN1CCC(Nc2ncc3ncnc(Nc4ccc(F)c(Cl)c4)c3n2)CC1 [NCGC00161422-04]", "recorded.endpoint": "Basal_Viability ATP HCT116 IC50/EC50", "recorded.result": "> 20 µM"}
{"molecule": "CCC(COC(=O)c1cc(OC)c(OC)c(OC)c1)(c1ccccc1)N(C)C.O=C(O)/C=C\\C(=O)O (stereo not drawn) [NCGC00018269-05]", "recorded.endpoint": "Basal_Viability ATP HCT116 IC50/EC50", "recorded.result": "> 20 µM"}

* * *

- assayed.system: hJAK2 (Homo sapiens)
- Construct: purchased Cerep (LANCE kinase assay platform, contract assay)
- Sequence (O60674 whole entry): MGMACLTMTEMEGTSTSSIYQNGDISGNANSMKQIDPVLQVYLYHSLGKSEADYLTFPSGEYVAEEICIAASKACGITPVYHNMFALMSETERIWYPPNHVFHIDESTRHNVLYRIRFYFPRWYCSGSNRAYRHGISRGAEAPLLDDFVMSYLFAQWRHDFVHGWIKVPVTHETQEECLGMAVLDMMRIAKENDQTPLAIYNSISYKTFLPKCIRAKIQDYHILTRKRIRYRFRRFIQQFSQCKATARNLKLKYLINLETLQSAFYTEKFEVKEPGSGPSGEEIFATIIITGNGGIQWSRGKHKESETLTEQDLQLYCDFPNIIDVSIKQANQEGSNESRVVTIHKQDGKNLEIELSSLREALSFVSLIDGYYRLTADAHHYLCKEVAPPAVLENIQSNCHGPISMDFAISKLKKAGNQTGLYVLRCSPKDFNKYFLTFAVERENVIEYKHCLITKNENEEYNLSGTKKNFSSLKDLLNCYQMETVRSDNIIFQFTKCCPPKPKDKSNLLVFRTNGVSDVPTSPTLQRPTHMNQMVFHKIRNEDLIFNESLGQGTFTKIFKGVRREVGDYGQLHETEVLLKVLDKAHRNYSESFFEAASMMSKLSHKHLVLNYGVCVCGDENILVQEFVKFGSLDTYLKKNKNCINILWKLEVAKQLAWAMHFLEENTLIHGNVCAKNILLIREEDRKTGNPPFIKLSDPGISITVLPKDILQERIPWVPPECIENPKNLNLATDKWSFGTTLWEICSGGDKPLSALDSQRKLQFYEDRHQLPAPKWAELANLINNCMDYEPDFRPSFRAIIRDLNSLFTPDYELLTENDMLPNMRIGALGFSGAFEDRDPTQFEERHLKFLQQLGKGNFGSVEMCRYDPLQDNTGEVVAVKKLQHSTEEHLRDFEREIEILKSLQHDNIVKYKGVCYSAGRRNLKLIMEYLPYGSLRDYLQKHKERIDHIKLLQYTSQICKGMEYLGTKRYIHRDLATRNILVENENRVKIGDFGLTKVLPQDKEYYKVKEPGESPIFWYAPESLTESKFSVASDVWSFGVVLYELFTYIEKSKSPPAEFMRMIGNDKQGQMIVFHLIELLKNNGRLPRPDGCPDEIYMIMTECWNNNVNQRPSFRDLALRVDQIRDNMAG
- assay.remarks: Cerep LANCE kinase assay hJAK2 (S1 assay 33)
- Format: biochemical
- condition.description: assay number 33
recorded.endpoint: hJAK2 LANCE IC50/EC50

{"compound": "COC(=O)[C@H]1[C@H]2C[C@@H]3c4[nH]c5cc(OC)ccc5c4CCN3C[C@H]2C[C@@H](OC(=O)/C=C/c2ccc(O)c(OC)c2)[C@@H]1OC [NCGC00253604-01]", "assayed.system": "hJAK2 (Homo sapiens)", "recorded.result": "> 20 µM"}
{"compound": "CC[C@]1(O)C[C@H]2CN(CCc3c([nH]c4ccccc34)[C@@](C(=O)OC)(c3cc4c(cc3OC)N(C=O)[C@H]3[C@@](O)(C(=O)OC)[C@H](OC(C)=O)[C@]5(CC)C=CCN6CC[C@]43[C@@H]65)C2)C1 [NCGC00263543-01]", "assayed.system": "hJAK2 (Homo sapiens)", "recorded.result": "> 20 µM"}
{"compound": "COc1cccc2c1C(=O)c1c(O)c3c(c(O)c1C2=O)C[C@@](O)(C(C)=O)C[C@@H]3O[C@H]1C[C@H](N)[C@H](O)[C@H](C)O1 [NCGC00024246-15]", "assayed.system": "hJAK2 (Homo sapiens)", "recorded.result": "> 20 µM"}
{"compound": "Cc1nc(N)nc(N)c1-c1ccc(Cl)c(Cl)c1 [NCGC00253626-01]", "assayed.system": "hJAK2 (Homo sapiens)", "recorded.result": "> 20 µM"}
{"compound": "Cc1ccc2nc(N)[nH]c(=O)c2c1Sc1ccncc1.Cl.Cl [NCGC00263580-01]", "assayed.system": "hJAK2 (Homo sapiens)", "recorded.result": "> 20 µM"}
{"compound": "O=C(O)c1ccc(-n2nc(-c3ccccc3O)nc2-c2ccccc2O)cc1 [NCGC00263572-01]", "assayed.system": "hJAK2 (Homo sapiens)", "recorded.result": "18.21 µM"}
{"compound": "Cc1ccc([N+](=O)[O-])[c]2c1[O][Hg]2 [NCGC00249897-01]", "assayed.system": "hJAK2 (Homo sapiens)", "recorded.result": "> 20 µM"}
{"compound": "CC(C)(C)C(=O)OCOP(=O)(COCCn1cnc2c(N)ncnc21)OCOC(=O)C(C)(C)C [NCGC00164624-02]", "assayed.system": "hJAK2 (Homo sapiens)", "recorded.result": "> 20 µM"}
{"compound": "CC[C@@H]([C@H](C)O)n1ncn(-c2ccc(N3CCN(c4ccc(OC[C@@H]5CO[C@@](Cn6cncn6)(c6ccc(F)cc6F)C5)cc4)CC3)cc2)c1=O [NCGC00274060-01]", "assayed.system": "hJAK2 (Homo sapiens)", "recorded.result": "> 20 µM"}
{"compound": "CC(=O)[C@]1(O)Cc2c(O)c3c(c(O)c2[C@@H](O[C@H]2C[C@H](N)[C@H](O)[C@H](C)O2)C1)C(=O)c1ccccc1C3=O [NCGC00093976-08]", "assayed.system": "hJAK2 (Homo sapiens)", "recorded.result": "> 20 µM"}
{"compound": "Cc1nc2ccc(CN(C)c3ccc(C(=O)N[C@@H](CCC(=O)O)C(=O)O)s3)cc2c(=O)[nH]1 [NCGC00229704-01]", "assayed.system": "hJAK2 (Homo sapiens)", "recorded.result": "> 20 µM"}
{"compound": "O=C1c2c(O)ccc(O)c2C(=O)c2c(NCCNCCO)ccc(NCCNCCO)c21 [NCGC00015693-09]", "assayed.system": "hJAK2 (Homo sapiens)", "recorded.result": "> 20 µM"}
{"compound": "CC[C@@]1(O)C(=O)OCc2c1cc1n(c2=O)Cc2c-1nc1ccccc1c2/C=N/OC(C)(C)C [NCGC00253588-01]", "assayed.system": "hJAK2 (Homo sapiens)", "recorded.result": "> 20 µM"}
{"compound": "CCCCCCCCCCCCCC[N+](C)(C)C.[Br-] [NCGC00166121-03]", "assayed.system": "hJAK2 (Homo sapiens)", "recorded.result": "> 20 µM"}
{"compound": "Cc1ccccc1C(=O)Nc1ccc(C(=O)N2CCCC(N(C)C)c3ccccc32)cc1 (stereo not drawn) [NCGC00262931-01]", "assayed.system": "hJAK2 (Homo sapiens)", "recorded.result": "> 20 µM"}
{"compound": "COCc1c(C(C)C)nc(C(C)C)c(/C=C/[C@@H](O)C[C@@H](O)CC(=O)[O-])c1-c1ccc(F)cc1.[Na+] [NCGC00164625-04]", "assayed.system": "hJAK2 (Homo sapiens)", "recorded.result": "> 20 µM"}
{"compound": "CCCCC1C(=O)N(c2ccccc2)N(c2ccc(O)cc2)C1=O (stereo not drawn) [NCGC00094748-07]", "assayed.system": "hJAK2 (Homo sapiens)", "recorded.result": "> 20 µM"}
{"compound": "CCCOc1ccc2nc(NC(=O)OC)[nH]c2c1 [NCGC00018238-09]", "assayed.system": "hJAK2 (Homo sapiens)", "recorded.result": "> 20 µM"}
{"compound": "COc1cc(NCc2ccc3nc(N)nc(N)c3c2C)cc(OC)c1OC [NCGC00161419-05]", "assayed.system": "hJAK2 (Homo sapiens)", "recorded.result": "> 20 µM"}
{"compound": "[O-][n+]1ccccc1SSc1cccc[n+]1[O-] [NCGC00164493-02]", "assayed.system": "hJAK2 (Homo sapiens)", "recorded.result": "> 20 µM"}
{"compound": "COc1cc(-c2ccc(=O)[nH]n2)ccc1OC(F)F [NCGC00016106-13]", "assayed.system": "hJAK2 (Homo sapiens)", "recorded.result": "> 20 µM"}
{"compound": "CC(C)C[C@H](NC(=O)[C@H](CCc1ccccc1)NC(=O)CN1CCOCC1)C(=O)N[C@@H](Cc1ccccc1)C(=O)N[C@@H](CC(C)C)C(=O)[C@@]1(C)CO1 [NCGC00249613-02]", "assayed.system": "hJAK2 (Homo sapiens)", "recorded.result": "> 20 µM"}
{"compound": "CC[C@]1(O)C[C@@H]2CN(CCc3c([nH]c4ccccc34)[C@@](C(=O)OC)(c3cc4c(cc3OC)N(C)[C@H]3[C@@](O)(C(=O)OC)[C@H](OC(C)=O)[C@]5(CC)C=CCN6CC[C@]43[C@@H]65)C2)C1.O=S(=O)(O)O [NCGC00263548-01]", "assayed.system": "hJAK2 (Homo sapiens)", "recorded.result": "> 20 µM"}
{"compound": "COc1ccc2cc1Oc1ccc(cc1)C[C@H]1c3c(cc4c(c3Oc3cc5c(cc3OC)CCN(C)[C@@H]5C2)OCO4)CCN1C [NCGC00161621-03]", "assayed.system": "hJAK2 (Homo sapiens)", "recorded.result": "> 20 µM"}
{"compound": "Nc1ccc2cc3ccc(N)cc3nc2c1 [NCGC00166245-04]", "assayed.system": "hJAK2 (Homo sapiens)", "recorded.result": "> 20 µM"}
{"compound": "CCC(C)n1ncn(-c2ccc(N3CCN(c4ccc(OC[C@H]5CO[C@](Cn6cncn6)(c6ccc(Cl)cc6Cl)O5)cc4)CC3)cc2)c1=O (stereo partly drawn) [NCGC00274068-01]", "assayed.system": "hJAK2 (Homo sapiens)", "recorded.result": "> 20 µM"}
{"compound": "O=C(CCl)c1ccc(Cl)cc1Cl [NCGC00091258-05]", "assayed.system": "hJAK2 (Homo sapiens)", "recorded.result": "> 20 µM"}
